Source of measurements: ChEMBL document CHEMBL1139496

assay: Half life was observed in dog after intravenous administration of 3-5 mg/kg; (n=3); format: ADME, organism-based, Canis lupus familiaris; conditions: in vivo, in the assay text read “1-5 mg/kg” for “3-5 mg/kg”
Each item that follows carries a reported half-life.
PARAMETER: half-life (h)

MOL: C[C@@H]1CC[C@@H](C)N1CCCOc1ccc(-c2ccc(C(=O)N3CCOCC3)cc2)cc1
MEASURED VALUE: 2.6

MOL: C[C@@H]1CCCN1CCc1cc2cc(C(=O)c3ccc(F)cc3)ccc2o1
MEASURED VALUE: 6.4

MOL: C[C@@H]1CCCN1CCc1cc2cc(C(=O)c3cccc(F)c3)ccc2o1
MEASURED VALUE: 8.1

MOL: CC(=O)c1cccc(-c2ccc3oc(CCN4CCC[C@H]4C)cc3c2)c1
MEASURED VALUE: 6.5
